molecular target: BRISC (Homo sapiens, UniProt P46736+Q15018+Q9NXR7); test: IQF K63-linked diUb DUB activity assay, BRISC; conditions: IQF K63-linked diUb substrate, FIG. 1D; read-out: IC50 inhibiting BRISC
MEASURED_QUANTITY: IC50 (nM)
Respond numerically; units are nM and should not be typed.

Identify IC50 associated with the compound O=C(NC1CCNCC1)c1nn(C(=O)c2c(Cl)cccc2Cl)cc1NC(=O)c1c(Cl)cccc1Cl 1500

Ref: patent US20230317203A1
